As shown below, each of these substances has a reported phosphorylation by PKC zeta value.
# TGT: PKC-zeta (Homo sapiens, UniProt Q05513)
# Construct: purchased Calbiochem
# Sequence (Q05513 1-592): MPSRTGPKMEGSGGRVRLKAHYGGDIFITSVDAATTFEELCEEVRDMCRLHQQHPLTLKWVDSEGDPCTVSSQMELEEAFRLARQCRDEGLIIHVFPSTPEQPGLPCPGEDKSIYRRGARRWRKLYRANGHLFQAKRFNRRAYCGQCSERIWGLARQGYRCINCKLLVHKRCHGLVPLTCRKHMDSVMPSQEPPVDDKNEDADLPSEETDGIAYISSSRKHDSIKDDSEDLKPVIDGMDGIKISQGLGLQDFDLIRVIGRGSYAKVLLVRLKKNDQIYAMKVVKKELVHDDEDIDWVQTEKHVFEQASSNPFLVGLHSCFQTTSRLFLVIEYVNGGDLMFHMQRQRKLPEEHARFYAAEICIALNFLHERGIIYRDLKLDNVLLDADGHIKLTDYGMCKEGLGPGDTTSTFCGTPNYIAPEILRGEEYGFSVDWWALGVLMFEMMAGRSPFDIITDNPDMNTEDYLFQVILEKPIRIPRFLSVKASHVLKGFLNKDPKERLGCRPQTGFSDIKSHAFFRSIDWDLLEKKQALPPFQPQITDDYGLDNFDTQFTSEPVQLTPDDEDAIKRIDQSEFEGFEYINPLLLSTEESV
# PROTOCOL: In vitro kinase assay: peptide phosphorylation by PKC-zeta
# Assay type: biochemical
# TEST SETTINGS: peptide concentration 1 uM
MEASURE NAME: phosphorylation by PKC zeta

>>> print(df.to_string())
                                   substance  observed_result
 0  127 (SQVQKQRSAGSFKRNSIKKI) [compound 127]               19
 1  161 (KYKAFIRIPIPTRRHTFRRQ) [compound 161]               15
 2  153 (TYLLPDKSRQGKRKTSIKRD) [compound 153]                6
 3       124 (PRLIRRGSKKRPAR) [compound 124]               45
 4  151 (PQNSLKASNRKKKRTSFKRK) [compound 151]               15
 5  119 (KKRFSFKKSFKLSGFSFKKN) [compound 119]               20
 6  123 (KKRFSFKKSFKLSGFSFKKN) [compound 123]               20
 7  141 (VTDSQKRREILSRRPSYRKI) [compound 141]               26
 8   121 (LRRRSLRRSNSISKSPGP) [compound 121]               60
 9  160 (PFEVVWYKDKRQLRSSKKYK) [compound 160]               15
10  154 (KKFFTQGWAGWRKKTSFRKP) [compound 154]               27
11  150 (VDPFYEMLAARKKRISVKKK) [compound 150]                3
12   149 (RVVQSVKHTKRKSSTVMK) [compound 149]                3
13        115 (NRKKKRTSFKRKA) [compound 115]               11
14  132 (GFLNEPLSSKSQRRKSLKLK) [compound 132]               19

---

Entries and their AKT1 phosphorylation
# TGT: AKT1 (Homo sapiens, UniProt P31749)
# Construct: purchased Panvera
# Sequence (P31749 whole entry, species assumed): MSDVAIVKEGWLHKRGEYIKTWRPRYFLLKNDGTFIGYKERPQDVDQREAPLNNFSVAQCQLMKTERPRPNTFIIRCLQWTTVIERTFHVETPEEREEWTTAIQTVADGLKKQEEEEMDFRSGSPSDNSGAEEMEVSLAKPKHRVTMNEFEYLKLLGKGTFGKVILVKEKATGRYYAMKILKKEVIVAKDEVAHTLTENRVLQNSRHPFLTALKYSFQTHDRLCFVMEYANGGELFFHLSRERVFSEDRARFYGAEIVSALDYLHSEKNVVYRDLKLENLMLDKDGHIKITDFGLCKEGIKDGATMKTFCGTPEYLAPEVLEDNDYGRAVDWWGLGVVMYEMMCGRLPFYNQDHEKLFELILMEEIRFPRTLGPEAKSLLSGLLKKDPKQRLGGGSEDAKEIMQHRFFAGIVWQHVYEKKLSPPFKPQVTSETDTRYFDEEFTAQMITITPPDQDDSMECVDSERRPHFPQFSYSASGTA
# PROTOCOL: In vitro kinase assay: peptide phosphorylation by AKT1
# Assay type: biochemical
# TEST SETTINGS: normalized to best substrate
MEASURE NAME: AKT1 phosphorylation

                            substance                                  tgt          measure_name  observed_result
0  80 (KKKKKRFSFKKSFKL) [compound 80]  AKT1 (Homo sapiens, UniProt P31749)  AKT1 phosphorylation               6%
1  102 (AGSFKRNSIKKIV) [compound 102]  AKT1 (Homo sapiens, UniProt P31749)  AKT1 phosphorylation               6%
2  99 (AGWRKKTSFRKPKED) [compound 99]  AKT1 (Homo sapiens, UniProt P31749)  AKT1 phosphorylation               6%

---

# TGT: PKC-delta (Homo sapiens, UniProt Q05655)
# Construct: purchased Calbiochem
# Sequence (Q05655 whole entry): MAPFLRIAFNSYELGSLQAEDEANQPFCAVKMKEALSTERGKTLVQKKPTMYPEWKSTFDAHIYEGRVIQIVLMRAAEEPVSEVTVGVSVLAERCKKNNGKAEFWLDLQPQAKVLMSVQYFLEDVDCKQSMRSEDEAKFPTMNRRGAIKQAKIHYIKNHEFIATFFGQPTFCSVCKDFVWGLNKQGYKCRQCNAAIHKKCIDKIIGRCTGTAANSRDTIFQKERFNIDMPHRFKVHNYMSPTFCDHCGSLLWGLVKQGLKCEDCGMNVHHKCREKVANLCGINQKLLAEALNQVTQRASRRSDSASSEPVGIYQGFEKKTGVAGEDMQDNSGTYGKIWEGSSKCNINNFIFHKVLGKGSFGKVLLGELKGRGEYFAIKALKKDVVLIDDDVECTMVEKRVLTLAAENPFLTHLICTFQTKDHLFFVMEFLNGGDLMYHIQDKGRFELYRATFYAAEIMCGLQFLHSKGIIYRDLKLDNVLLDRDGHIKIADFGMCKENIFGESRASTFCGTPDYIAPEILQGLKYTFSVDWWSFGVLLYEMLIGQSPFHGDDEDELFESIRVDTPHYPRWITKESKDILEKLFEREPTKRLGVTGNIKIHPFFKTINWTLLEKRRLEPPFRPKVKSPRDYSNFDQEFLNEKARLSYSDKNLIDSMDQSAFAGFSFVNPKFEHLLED
# PROTOCOL: In vitro kinase assay: peptide phosphorylation by PKC-delta
# Format: biochemical
# TEST SETTINGS: peptide concentration of 10 nM; percentage of phosphorylation of the best validating peptide substrate
# Method: One approach to validating a substrate identification method can involve, for example, comparison of substrate sites predicted by the method with in vitro phosphorylation results obtained using the selected kinase and peptides of known sequences. […] Table 2 compares the present predictions with actual measurements of phosphorylation on validating peptides. […] In vitro phosphorylation of these validating peptides was measured in the manner described herein. […]
Mark Yes for reported Measured in vitro phosphorylation by PKC-delta of 8% or greater; mark No for anything smaller.

>>> df
                                 substance  class
 0      73 (IDYYKKTTNGRLPVK) [compound 73]     No
 1      45 (VFREHQRSGSYHVRE) [compound 45]     No
 2      47 (ARIIGEKSFRRSVVG) [compound 47]     No
 3      57 (KNVVKLLSSRRTQDR) [compound 57]     No
 4      52 (HKHSPEKRGSERKEG) [compound 52]     No
 5      53 (AKNLKTLQKRDSFIG) [compound 53]     No
 6        70 (HERKGSDKRGDNQ) [compound 70]     No
 7     69 (LALTARESSVRSGGAG) [compound 69]     No
 8        14 (EYLERRASRRRAV) [compound 14]    Yes
 9          3 (NRKKKRTSFKRKA) [compound 3]    Yes
10      23 (QKRHARVTVKYDRRE) [compound 23]    Yes
11     24 (EKIKRSSLKKVDSLKK) [compound 24]    Yes
12      67 (AINSRETMFHKERFK) [compound 67]     No
13      60 (LRRKHLGTLNFGGIR) [compound 60]     No
14      7 (RKIPKRPGSVHRTPSRQ) [compound 7]    Yes
15      38 (NYLRRRLSDSNFMAN) [compound 38]     No
16      36 (GENVLKKSMKSRVKG) [compound 36]     No
17       44 (VLAKKGTSKTPVPE) [compound 44]     No
18      30 (KEVVRTDSLKGRRGR) [compound 30]     No
19       5 (RQRKRKLSFRRRTDKD) [compound 5]    Yes
20       55 (DDMEHKTLKITDFG) [compound 55]     No
21         6 (PRLIRRGSKKRPAR) [compound 6]    Yes
22         34 (EGGDRRASGRRK) [compound 34]     No
23      35 (GLLDRKGSWKKLDDM) [compound 35]     No
24      12 (KKKKKRFSFKKSFKL) [compound 12]    Yes
25        26 (ALRRPSLRREADD) [compound 26]    Yes
26    22 (LLKKRDSFRTPRDSKLE) [compound 22]    Yes
27      17 (AGWRKKTSFRKPKED) [compound 17]    Yes
28  71 (RRRQKRRTGALVLSRGGKR) [compound 71]     No
29        8 (AARKKRISVKKKQEQ) [compound 8]    Yes
30       13 (WKGKRRSKARKKRK) [compound 13]    Yes
31        4 (KFARKSTRRSIRLPE) [compound 4]    Yes
32       10 (AQIVKRASLKRGKQ) [compound 10]    Yes
33        20 (GAPPRRSSIRNAH) [compound 20]    Yes
34      49 (VQQLLRSSNRRLEQL) [compound 49]     No
35        58 (RVKLGTLRRPEGP) [compound 58]     No
36      50 (ENLRRVATDRRHLGH) [compound 50]     No

---

# TGT: PKC-zeta (Homo sapiens)
# Construct: purchased Calbiochem
# Sequence (Q05513 1-592): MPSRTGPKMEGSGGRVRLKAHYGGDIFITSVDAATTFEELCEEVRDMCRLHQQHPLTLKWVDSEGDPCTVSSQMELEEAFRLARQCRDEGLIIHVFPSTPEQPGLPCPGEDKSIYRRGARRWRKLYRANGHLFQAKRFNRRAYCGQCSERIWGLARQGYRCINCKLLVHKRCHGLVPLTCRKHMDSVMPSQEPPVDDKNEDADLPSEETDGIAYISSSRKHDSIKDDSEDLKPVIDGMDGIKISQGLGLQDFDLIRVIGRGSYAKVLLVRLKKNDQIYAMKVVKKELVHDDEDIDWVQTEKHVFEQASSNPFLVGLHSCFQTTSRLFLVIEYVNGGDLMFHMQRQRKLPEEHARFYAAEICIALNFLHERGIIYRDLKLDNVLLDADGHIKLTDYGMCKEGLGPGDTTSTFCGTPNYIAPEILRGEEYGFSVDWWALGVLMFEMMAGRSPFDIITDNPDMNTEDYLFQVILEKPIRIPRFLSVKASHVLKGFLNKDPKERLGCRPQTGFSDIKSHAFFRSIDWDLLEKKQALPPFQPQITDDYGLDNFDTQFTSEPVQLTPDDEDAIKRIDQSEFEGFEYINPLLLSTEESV
# PROTOCOL: In vitro kinase assay: peptide phosphorylation by PKC-zeta
# Assay type: biochemical
# TEST SETTINGS: peptide concentration 10 uM
# Text: Catalytically active preparations of the kinases of interest were either purchased or prepared. […] The conditions of the kinase assay and the amount of active kinase used varied with the kinase and with the accuracy needed. […] The choice of kinase buffer depended on the kinase being analyzed. […]
Category key, based on recorded phosphorylation by PKC zeta: LOW = under 10, MID = from 10 up to 40, HIGH = 40 and over

>>> print(df.to_string())
                                   substance  class
 0  133 (LEKRGMLGKRPRRKSSRRKK) [compound 133]    MID
 1    116 (EEGTFRSSIRRLSTRRR) [compound 116]   HIGH
 2  165 (TEEKSKKRKKKHRKNSRKHK) [compound 165]    LOW
 3  153 (TYLLPDKSRQGKRKTSIKRD) [compound 153]    MID
 4      135 (KKKFRTPSFLKKSKK) [compound 135]    MID
 5        138 (EYLERRASRRRAV) [compound 138]   HIGH
 6       124 (PRLIRRGSKKRPAR) [compound 124]    MID
 7  144 (LSSMFGTLPRKSRKGSVRKQ) [compound 144]   HIGH
 8  167 (GLPAPGEDKSIYRRGSRRWR) [compound 167]    MID
 9  161 (KYKAFIRIPIPTRRHTFRRQ) [compound 161]    LOW
10  145 (ISDFGLAKKLAVGRHSFSRR) [compound 145]   HIGH
11  155 (RWDKRRWRKIPKRPGSVHRT) [compound 155]    LOW
12  156 (SAQITIPKDGQKRKKSLRKK) [compound 156]   HIGH
13  164 (TEGKMARVAWKGKRRSKARK) [compound 164]    LOW
14  119 (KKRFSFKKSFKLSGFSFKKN) [compound 119]    MID
15      120 (AKRRRLSSLRASTSK) [compound 120]    MID
16  141 (VTDSQKRREILSRRPSYRKI) [compound 141]   HIGH
17  150 (VDPFYEMLAARKKRISVKKK) [compound 150]    LOW
